Each recorded value in this set is attributed to ChEMBL document CHEMBL1136987.

TARGET OF ASSAY: Sphingosine kinase 2 (Homo sapiens)
Sequence (whole entry): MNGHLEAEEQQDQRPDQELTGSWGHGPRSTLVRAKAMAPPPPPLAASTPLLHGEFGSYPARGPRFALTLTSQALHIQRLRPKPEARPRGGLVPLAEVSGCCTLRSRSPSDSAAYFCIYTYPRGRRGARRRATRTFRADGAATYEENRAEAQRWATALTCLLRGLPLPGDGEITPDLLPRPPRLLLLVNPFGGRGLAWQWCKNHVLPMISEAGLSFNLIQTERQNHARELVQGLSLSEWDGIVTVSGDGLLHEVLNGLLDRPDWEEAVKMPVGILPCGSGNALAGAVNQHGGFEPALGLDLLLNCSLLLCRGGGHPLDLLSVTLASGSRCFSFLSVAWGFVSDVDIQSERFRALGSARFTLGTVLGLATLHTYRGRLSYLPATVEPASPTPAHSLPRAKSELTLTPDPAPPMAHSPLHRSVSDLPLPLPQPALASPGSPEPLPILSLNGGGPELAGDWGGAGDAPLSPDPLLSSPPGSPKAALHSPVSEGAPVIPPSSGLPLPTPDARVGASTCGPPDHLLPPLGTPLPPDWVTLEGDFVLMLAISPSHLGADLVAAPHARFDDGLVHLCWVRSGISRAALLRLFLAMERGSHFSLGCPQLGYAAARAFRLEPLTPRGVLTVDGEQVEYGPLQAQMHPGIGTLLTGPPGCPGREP
TEST NAME: Effect on human cloned SPHK2 activity expressed in CHO cells at 10 uM relative to basal level
Type: cell-based
ASSAY READOUT: Activity (%)
Give the value in % but do not write % after it.

smiles=CCCCC#CC(=O)[C@H](CO)NC(=O)OC(C)(C)C assay_value=117
smiles=CCCCCCCCC#CC(=O)[C@@H]1COC(C)(C)N1C(=O)OC(C)(C)C assay_value=62.8
smiles=CCCCCCCCCCCCCC#CC(=O)[C@@H]1COC(C)(C)N1C(=O)OC(C)(C)C assay_value=117

Value wanted: Activity (Sphingosine kinase 2 (Homo sapiens)) of entry "CCCCCCCCCCCCCC#C[C@@H](O)[C@@H](N)CO"
152

Value wanted: Activity (Sphingosine kinase 2 (Homo sapiens)) of entry "CCCCC#CC(=O)[C@@H]1COC(C)(C)N1C(=O)OC(C)(C)C"
115

Value wanted: Activity (Sphingosine kinase 2 (Homo sapiens)) of entry "CCCCCCC(=O)[C@@H]1COC(C)(C)N1C(=O)OC(C)(C)C"
126

Value wanted: Activity (Sphingosine kinase 2 (Homo sapiens)) of entry "CCCCCCCCCCCCCC#CC(=O)[C@H](CO)NC(=O)OC(C)(C)C"
45.9

Value wanted: Activity (Sphingosine kinase 2 (Homo sapiens)) of entry "CCCCCCCCCCCCCC#C[C@@H](O)[C@@H]1COC(C)(C)N1C(=O)OC(C)(C)C"
123

Value wanted: Activity (Sphingosine kinase 2 (Homo sapiens)) of entry "CCCCC#C[C@H](O)[C@H](CO)NC(=O)OC(C)(C)C"
111

Value wanted: Activity (Sphingosine kinase 2 (Homo sapiens)) of entry "CCCCC#C[C@@H](O)[C@@H](N)CO"
109

Value wanted: Activity (Sphingosine kinase 2 (Homo sapiens)) of entry "CCCCCCCCC#CC(=O)[C@H](CO)NC(=O)OC(C)(C)C"
89.9

Value wanted: Activity (Sphingosine kinase 2 (Homo sapiens)) of entry "CCCCCCCCC#C[C@@H](O)[C@@H](N)CO"
116

Value wanted: Activity (Sphingosine kinase 2 (Homo sapiens)) of entry "CCCCCCCCCCCCC/C=C/[C@@H](O)[C@H](CO)N(C)C"
67

----------
Parameter Activity: see the listing below.
TARGET OF ASSAY: Sphingosine kinase 1 (Homo sapiens)
TEST NAME: Effect on EGFP-fused human SPHK1 activity expressed in CHO cells at 10 uM relative to basal level
Type: cell-based
Please answer using a numeric value trailed by its unit.

// returns reported Activity for input "CCCCCCCCCCCCCC#C[C@@H](O)[C@@H]1COC(C)(C)N1C(=O)OC(C)(C)C"
112%

// returns reported Activity for input "CCCCCCC(=O)[C@@H]1COC(C)(C)N1C(=O)OC(C)(C)C"
95.3%

// returns reported Activity for input "CCCCCCCCC#C[C@@H](O)[C@@H](N)CO"
86.3%

// returns reported Activity for input "CCCCC#C[C@H](O)[C@H](CO)NC(=O)OC(C)(C)C"
117%

// returns reported Activity for input "CCCCCCCCC#CC(=O)[C@H](CO)NC(=O)OC(C)(C)C"
95.8%

// returns reported Activity for input "CCCCC#C[C@@H](O)[C@@H](N)CO"
132%

// returns reported Activity for input "CCCCC#CC(=O)[C@@H]1COC(C)(C)N1C(=O)OC(C)(C)C"
90.9%

// returns reported Activity for input "CCCCCCCCCCCCCC#CC(=O)[C@H](CO)NC(=O)OC(C)(C)C"
43.1%

----------
Target chain: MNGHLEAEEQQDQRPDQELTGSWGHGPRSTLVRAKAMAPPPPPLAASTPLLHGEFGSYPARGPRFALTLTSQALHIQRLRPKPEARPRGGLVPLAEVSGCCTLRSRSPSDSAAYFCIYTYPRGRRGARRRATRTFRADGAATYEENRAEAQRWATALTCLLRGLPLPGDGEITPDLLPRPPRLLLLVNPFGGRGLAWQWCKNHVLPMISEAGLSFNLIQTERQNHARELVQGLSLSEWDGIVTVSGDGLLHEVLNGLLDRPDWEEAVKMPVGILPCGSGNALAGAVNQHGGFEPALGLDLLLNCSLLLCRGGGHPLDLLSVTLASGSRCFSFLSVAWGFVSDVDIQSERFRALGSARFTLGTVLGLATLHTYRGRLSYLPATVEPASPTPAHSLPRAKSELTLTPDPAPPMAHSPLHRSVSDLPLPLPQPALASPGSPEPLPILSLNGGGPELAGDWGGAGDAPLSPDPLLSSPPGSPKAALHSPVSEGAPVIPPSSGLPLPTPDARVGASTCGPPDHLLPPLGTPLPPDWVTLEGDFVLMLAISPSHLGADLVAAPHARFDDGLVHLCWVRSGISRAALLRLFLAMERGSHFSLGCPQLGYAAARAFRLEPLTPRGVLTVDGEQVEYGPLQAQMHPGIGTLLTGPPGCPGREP
ASSAY READOUT: Ki (µM)
Give the value in µM but do not write µM after it.

// returns reported Ki for input "CCCCCCCCCCCCC/C=C/[C@@H](O)[C@H](CO)N(C)C"
12.5

----------
TARGET OF ASSAY: Sphingosine kinase 1 (Homo sapiens, UniProt Q9NYA1)
Sequence (Q9NYA1 whole entry, the tested form may be a part): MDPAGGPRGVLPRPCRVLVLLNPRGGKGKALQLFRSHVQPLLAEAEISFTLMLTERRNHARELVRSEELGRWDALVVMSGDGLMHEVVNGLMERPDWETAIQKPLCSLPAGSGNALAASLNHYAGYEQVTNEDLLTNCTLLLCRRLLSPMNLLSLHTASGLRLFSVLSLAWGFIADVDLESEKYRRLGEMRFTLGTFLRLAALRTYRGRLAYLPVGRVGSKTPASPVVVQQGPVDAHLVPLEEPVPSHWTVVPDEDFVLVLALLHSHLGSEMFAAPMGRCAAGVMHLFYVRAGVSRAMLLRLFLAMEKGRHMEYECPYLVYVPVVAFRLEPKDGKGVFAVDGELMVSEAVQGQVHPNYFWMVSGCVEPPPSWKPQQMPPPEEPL
TEST NAME: Inhibition of EGFP-fused human SPHK1 expressed in CHO cells at 10 uM
Assay type: cell-based
Active and inactive are the calls of the source. The calls are words filed in the database; no cut-off is given here.
ASSAY READOUT: inhibition

Here are 5 molecules together with their reported answers.
smiles=CCCCCCCCCCCCCC#CC(=O)[C@H](CO)NC(=O)OC(C)(C)C assay_value=56.9%
smiles=CCCCCCCCC#CC(=O)[C@@H]1COC(C)(C)N1C(=O)OC(C)(C)C assay_value=15.2%
smiles=CCCCC#C[C@@H](O)[C@@H](N)CO assay_value=inactive
smiles=CCCCC#CC(=O)[C@@H]1COC(C)(C)N1C(=O)OC(C)(C)C assay_value=9.08%
smiles=CCCCCCCCC#CC(=O)[C@H](CO)NC(=O)OC(C)(C)C assay_value=4.2%

// returns reported inhibition for input "CCCCCCC(=O)[C@@H]1COC(C)(C)N1C(=O)OC(C)(C)C"
4.71%

// returns reported inhibition for input "CCCCCCCCCCCCCC#C[C@@H](O)[C@@H](N)CO"
24.4%

// returns reported inhibition for input "CCCCC#C[C@H](O)[C@H](CO)NC(=O)OC(C)(C)C"
inactive

// returns reported inhibition for input "CCCCCCCCC#C[C@@H](O)[C@@H](N)CO"
13.7%

// returns reported inhibition for input "CCCCCCCCCCCCCC#C[C@@H](O)[C@@H]1COC(C)(C)N1C(=O)OC(C)(C)C"
inactive

// returns reported inhibition for input "CCCCCCCCCCCCCC#CC(=O)[C@@H]1COC(C)(C)N1C(=O)OC(C)(C)C"
54.7%

// returns reported inhibition for input "CCCCC#CC(=O)[C@H](CO)NC(=O)OC(C)(C)C"
inactive

----------
TARGET OF ASSAY: Sphingosine kinase 2 (Homo sapiens) (UniProt Q9NRA0)
TEST NAME: Inhibition of human cloned SPHK2 expressed in CHO cells at 10 uM
Assay type: cell-based
The source made the active and inactive calls. The calls are words filed in the database; no cut-off is given here.
ASSAY READOUT: inhibition

smiles=CCCCC#C[C@H](O)[C@H](CO)NC(=O)OC(C)(C)C assay_readout=inhibition assay_value=inactive
smiles=CCCCCCCCCCCCCC#C[C@@H](O)[C@@H]1COC(C)(C)N1C(=O)OC(C)(C)C assay_readout=inhibition assay_value=inactive
smiles=CCCCCCCCCCCCC/C=C/[C@@H](O)[C@H](CO)N(C)C assay_readout=inhibition assay_value=33%
smiles=CCCCCCCCCCCCCC#CC(=O)[C@@H]1COC(C)(C)N1C(=O)OC(C)(C)C assay_readout=inhibition assay_value=inactive
smiles=CCCCC#CC(=O)[C@H](CO)NC(=O)OC(C)(C)C assay_readout=inhibition assay_value=inactive
smiles=CCCCCCCCC#C[C@@H](O)[C@@H](N)CO assay_readout=inhibition assay_value=inactive
smiles=CCCCCCCCCCCCCC#C[C@@H](O)[C@@H](N)CO assay_readout=inhibition assay_value=inactive
smiles=CCCCCCCCC#CC(=O)[C@@H]1COC(C)(C)N1C(=O)OC(C)(C)C assay_readout=inhibition assay_value=37.2%

// returns reported inhibition for input "CCCCCCCCCCCCCC#CC(=O)[C@H](CO)NC(=O)OC(C)(C)C"
54.1%

// returns reported inhibition for input "CCCCCCC(=O)[C@@H]1COC(C)(C)N1C(=O)OC(C)(C)C"
inactive

// returns reported inhibition for input "CCCCC#CC(=O)[C@@H]1COC(C)(C)N1C(=O)OC(C)(C)C"
inactive

// returns reported inhibition for input "CCCCC#C[C@@H](O)[C@@H](N)CO"
inactive

// returns reported inhibition for input "CCCCCCCCC#CC(=O)[C@H](CO)NC(=O)OC(C)(C)C"
inactive
